experiment: clinical; type: in vivo; conditions: human, plasma, oral, 800 mg, Cmax, Day 15, 800 mg (n = 5), steady state; geometric mean (%CV)
MEASURED_ATTRIBUTE: Cmax (ng/mL)
Give bare numbers, in ng/mL.

The recorded Cmax for `CC(C)NC[C@@H](C(=O)N1CCN(c2ncnc3c2[C@H](C)C[C@H]3O)CC1)c1ccc(Cl)cc1` is 879

====

experiment: clinical; assay type: in vivo; settings: human, plasma, oral, 25 mg, AUC0–24, Day 1, 25 mg (n = 3), single dose; geometric mean (%CV)
MEASURED_ATTRIBUTE: AUC(0-t) (ng·h/mL)
One number for each entry, in ng·h/mL.

The recorded AUC(0-t) for CC(C)NC[C@@H](C(=O)N1CCN(c2ncnc3c2[C@H](C)C[C@H]3O)CC1)c1ccc(Cl)cc1 [Ipatasertib] is 31.8

====

assay: clinical; assay type: in vivo; details: human, plasma, oral, 400 mg, tmax, Day 15, 400 mg (n = 3), steady state; median (range)
MEASURED_ATTRIBUTE: Tmax (h)
Give bare numbers, in h.

The recorded Tmax for CC(C)NC[C@@H](C(=O)N1CCN(c2ncnc3c2[C@H](C)C[C@H]3O)CC1)c1ccc(Cl)cc1 [Ipatasertib] is 1

====

assay: clinical; format: in vivo; conditions: human, plasma, oral, 600 mg, Cmax, Day 1, 600 mg (n = 7), single dose; geometric mean (%CV)
MEASURED_ATTRIBUTE: Cmax (ng/mL)
Numbers only, in ng/mL.

The recorded Cmax for CC(C)NC[C@@H](C(=O)N1CCN(c2ncnc3c2[C@H](C)C[C@H]3O)CC1)c1ccc(Cl)cc1 [Ipatasertib] is 488
